EC50 by entry:
assay_system: T1, cynomolgus Nectin-4 on transfected HEK-293 cells (cynomolgus, UniProt A0A2K5WES1 32-510)
T1 construct: whole, on cells; also called HEK-293 cells transfected with cynomolgus Nectin-4
T1 sequence: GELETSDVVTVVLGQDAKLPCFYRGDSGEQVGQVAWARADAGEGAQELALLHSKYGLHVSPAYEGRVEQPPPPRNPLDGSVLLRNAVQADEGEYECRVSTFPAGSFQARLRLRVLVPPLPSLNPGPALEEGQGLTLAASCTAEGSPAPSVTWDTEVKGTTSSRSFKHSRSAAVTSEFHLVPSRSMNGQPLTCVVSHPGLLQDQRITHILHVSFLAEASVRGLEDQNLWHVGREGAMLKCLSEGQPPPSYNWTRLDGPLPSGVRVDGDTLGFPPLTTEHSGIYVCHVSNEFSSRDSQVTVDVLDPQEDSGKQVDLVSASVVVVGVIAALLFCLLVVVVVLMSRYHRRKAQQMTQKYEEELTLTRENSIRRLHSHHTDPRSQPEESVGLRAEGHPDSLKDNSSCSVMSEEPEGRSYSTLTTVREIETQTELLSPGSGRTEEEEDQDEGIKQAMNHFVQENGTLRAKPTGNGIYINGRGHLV
experimental_details: flow cytometry on HEK-293 cells transfected with cynomolgus Nectin-4, anti-huIgG1-PE secondary, MFI (Geo Mean)
Method: After incubations, cells were washed with FW and then analyzed on a flow cytometer.
Quick note: unit goes after the number.

Which EC50 reading was recorded for the binder hzD6.1C-Compound 2.14 (anti-Nectin-4-TLR8 agonist immunoconjugate) (antibody, V domains shown, hzD6.1C conjugated to linker-TLR8 agonist Compound 2.14) VH: EVQLVESGGGLVQPGGSLRLSCAASGFTFSNYDMSWVRQAPGKGLEWVATISSGGSYTYYVDSVKGRFTISRDNAKNSLYLQMNSLRAEDTAVYYCARQELGSYYAMDYWGQGTTVTVSS VL: DVVMTQTPLSLPVTPGEPASISCRSSQSIVHSNGNTYLEWYLQKPGQSPQLLIYKVSNRFSGVPDRFSGSGSGTDFTLKISRVEAEDVGVYYCFQGSHVPYTFGGGTKVEIKR ? 0.023 µg/mL

What measured EC50 goes with humanized D6C mAb with hzD6.2C VL (G34A), human IgG1 / human kappa (antibody, V domains shown, also called hzD6.2C mAb) VH: EVQLVESGGGLVQPGGSLRLSCAASGFTFSNYDMSWVRQAPGKGLEWVATISSGGSYTYYVDSVKGRFTISRDNAKNSLYLQMNSLRAEDTAVYYCARQELGSYYAMDYWGQGTTVTVSS VL: DIVMTQTPLSLPVTPGEPASISCRSSQSIVHSNANTYLEWYLQKPGQSPQLLIYKVSNRFSGVPDRFSGSGSGTDFTLKISRVEAEDVGVYYCFQGSHVPYTFGGGTKVEIKR ? 0.017 µg/mL

Would you mind telling me what EC50 value was observed for hzD6.2C-Compound 2.14 (anti-Nectin-4-TLR8 agonist immunoconjugate) (antibody, V domains shown, hzD6.2C conjugated to linker-TLR8 agonist Compound 2.14) VH: EVQLVESGGGLVQPGGSLRLSCAASGFTFSNYDMSWVRQAPGKGLEWVATISSGGSYTYYVDSVKGRFTISRDNAKNSLYLQMNSLRAEDTAVYYCARQELGSYYAMDYWGQGTTVTVSS VL: DIVMTQTPLSLPVTPGEPASISCRSSQSIVHSNANTYLEWYLQKPGQSPQLLIYKVSNRFSGVPDRFSGSGSGTDFTLKISRVEAEDVGVYYCFQGSHVPYTFGGGTKVEIKR ? 0.016 µg/mL

Please turn your attention to the following entry.
Tell me the measured EC50 of D6C parental chimeric anti-Nectin-4 antibody (D6C IgG1) (antibody, V domains shown, Called the parental chimeric antibody; also called chimeric D6C) VH: EVMLVESGGALVKPGGSLKLSCVASGFTFSNYDMSWVRQTPEKRLEWVATISSGGSYTYYVDSVKGRFTISRDNARNTLHLQMSSLRSKDTAMYYCARQELGSYYAMDYWGQGTSVTVSS VL: DVVMTQTPLSLPVSLGDQASISCRSSQSIVHSNGNTYLEWYLQKPGQSPKLLIYKVSNRFSGVPDRFSGSGSGTDFTLKISRVEAEDLGVYYCFQGSHVPYTFGGGTKLEIK , please. 0.018 µg/mL
